- Tested on: HL-60
- Test: NCI tumour cell line growth inhibition, 48 h
Activity calls are given as the source filed them. Rule as the data show it: active = GI50 up to about 1.1 µM and inactive = higher.
Outcome codes: true = active, false = inactive

| Compound | Assigned category |
| --- | --- |
| COc1cc(OC(=O)c2ccccc2)cc2c1C(=O)C=CC2=O | true |
| CC(C)=C[C@@H]1C[C@H](C)c2c(O)cc(C)c3c2C1=C(C)C(=O)C3=O | false |
| O=c1c(Cc2ccc(Cl)cc2)nnc2sc(-c3ccc(-c4ccc(F)c(Cl)c4)o3)nn12 | false |
| CCCCCCCCCCCCCCCCCCOCC(CCP(=O)(CP(=O)(O)O)Oc1ccccc1)OCCCCCCCCCCCCCCCCCC (stereo not given) | false |
| c1ccc(C2=NNC3c4ccccc4-c4ccccc4N3C2)cc1 (stereo not given) | false |
| CCOC(=O)C(=C=Cc1cccs1)C(=O)c1ccccc1 | false |
| Cc1ccc(-n2nnc3c(NNc4ccccc4)n[nH]c(=O)c32)cc1 | false |
| O=C1CSC(/C(=C/c2ccccc2)c2nc3ccccc3[nH]2)=N1 | false |
| CCOC(=O)/C(C#N)=N\Nc1ccc(-n2c(C)nc3ccc(Br)cc3c2=O)cc1 | false |
| CC(=O)N1CN2C(=O)CCC2c2ccccc21 (stereo not given) | false |
